System: MDA-MB-435 melanoma
Assay: NCI-60 one-dose screen, 48 h
Details: 10 µM unless noted
This is part of a sample that, as a whole, favours compounds with a hit. Of some 83,000 tested, about 20% had one in any assay. The source made the active and inactive calls. Rule for the calls: active = growth percent below 10; inactive = the rest.
Outcome codes: Yes (active), No (inactive)

{"molecule": "COC1/C=C\\OC2(C)Oc3c(C)c(O)c4c(O)c(c(CN(C)CCO)c(O)c4c3C2=O)NC(=O)/C(C)=C\\C=C/C(C)C(O)C(C)C(O)C(C)C(OC(C)=O)C1C (centres undefined)", "category_label": "No"}
{"molecule": "CCOC(=O)c1c2c(n3ccc(NC(=O)CCN4CCCCC4)cc13)C(=O)c1ncccc1C2=O", "category_label": "Yes"}
{"molecule": "COc1cc(NCCCCN=C(N)NC(N)=NC(C)C)c2ncccc2c1", "category_label": "No"}
{"molecule": "CN(CC(=O)N(Cc1ccc(C2CCCCC2)cc1)c1ccc(C(=O)NO)cc1)S(=O)(=O)c1c(F)c(F)c(F)c(F)c1F", "category_label": "No"}
{"molecule": "Cc1ccc(Nc2nc(N)nc(Nc3ccc4ccccc4c3)n2)cc1", "category_label": "No"}
{"molecule": "NC1=CSC2=N/C(=C\\c3ccc(Cl)cc3)C(=O)N12", "category_label": "No"}
{"molecule": "CN(C)c1ccc(C2Nc3ccccc3-n3cccc32)cc1 (centres undefined)", "category_label": "No"}
{"molecule": "O=C1C=CC(Nc2ccccc2[N+](=O)[O-])C1Nc1ccccc1[N+](=O)[O-] (centres undefined)", "category_label": "Yes"}
{"molecule": "CCCCOc1ccc(NC(=O)n2nc(NC(C)=O)c3cc(NC(C)=O)ccc32)cc1", "category_label": "No"}
